- Tested target: BRD4-BD12 (1-477) (Homo sapiens (Human), UniProt O60885)
- Assay explanation: Alphascreen binding assay BRD4-BD12
- Experimental parameters: BRD4(1 2) H4; read-out: Biochemical activity (IC50 μM) BRD4(1 2) H4
IC50: recorded values
Assay endpoint: IC50

Molecule: Cc1noc(C)c1-c1cnc2c(-c3ccc(C(=O)O)cc3)cn(CC3CCCCC3)c2c1 [P-0554]
Tested target: BRD4-BD12 (1-477) (Homo sapiens (Human), UniProt O60885)
Measurement: < 1 µM

Molecule: Cc1noc(C)c1-c1cnc2c(-c3ccc(C(C)(C)C)cc3)cn(CC3CCC(F)(F)CC3)c2c1 [P-0802]
Tested target: BRD4-BD12 (1-477) (Homo sapiens (Human), UniProt O60885)
Measurement: < 1 µM

Molecule: Cc1noc(C)c1-c1cnc2c(Cl)cn(C(CC#N)C3CC3)c2c1 (centres unmarked) [P-0307]
Tested target: BRD4-BD12 (1-477) (Homo sapiens (Human), UniProt O60885)
Measurement: < 1 µM

Molecule: CCn1cc(-c2cnc3ccn(CC4CCC(F)(F)CC4)c3c2)ccc1=O [P-0517]
Tested target: BRD4-BD12 (1-477) (Homo sapiens (Human), UniProt O60885)
Measurement: 1 to 10 µM

Molecule: [2H]C([2H])(C1CCC(F)(F)CC1)n1cc(-c2cccnc2)c2ncc(-c3c(C)noc3C)cc21 [P-0340]
Tested target: BRD4-BD12 (1-477) (Homo sapiens (Human), UniProt O60885)
Measurement: < 1 µM

Molecule: [2H]C([2H])(C1CCC(F)(F)CC1)n1cc(-c2cnc(OC)nc2)c2ncc(-c3c(C)noc3C)cc21 [P-0346]
Tested target: BRD4-BD12 (1-477) (Homo sapiens (Human), UniProt O60885)
Measurement: < 1 µM

Molecule: Cc1noc(N)c1-c1cnc2ccn(CC3CCC(F)(F)CC3)c2c1 [P-0328]
Tested target: BRD4-BD12 (1-477) (Homo sapiens (Human), UniProt O60885)
Measurement: < 1 µM

Molecule: COC(=O)c1ccc(-c2cn(Cc3ccccc3)c3cc(-c4c(C)noc4C)cnc23)cc1 [P-0919]
Tested target: BRD4-BD12 (1-477) (Homo sapiens (Human), UniProt O60885)
Measurement: < 1 µM
